# experiment: Cell viability assay (CellTiter-Blue)
# Format: cell-based, murine
measured-endpoint: CC50

Problem: Provide one value: measured CC50 of H-SGTQEEY-NH2 [P5, SGTQEEY-amide, reference compound]
Solution: > 50 µM

* * *

# System: HIV-1NL4-3
# experiment: In vitro inhibition of HIV-1NL4-3 infection of TZM-bl cells (luciferase reporter)
# Assay type: cell-based
# run-parameters: Human immunodeficiency virus 1; 100 TCDI50 per well, TZM-bl cells, no-light; read-out: IC50 HIV inhibition, 100 TCDI50
pIC50: −log10 of the molar value.
measured-endpoint: pIC50

Problem: Quote pIC50 with test system HIV-1NL4-3 for CCC1=C(C)c2cc3[nH]c(cc4nc(cc5[nH]c(cc1n2)c(C)c5CCC(=O)O)C(CCC(=O)O)=C4C)c(C)c3CC [MP, mesoporphyrin IX, reference compound]
Solution: < 4.30

* * *

# experiment: Cell viability assay (CellTiter-Blue)
# Assay type: cell-based, murine
# run-parameters: 24 h, 6.25–50 μM range
Each entry below lists one item and its recorded CC50 value.

substance | CC50
H-AGILKRW-NH2 [P3, AGILKRW-amide, reference compound] | > 50 µM

Here's the next entry for you.
Problem: Provide one value: measured CC50 of H-VQQLTKRFSL-NH2 [P1, reference compound]
Solution: > 50 µM

* * *

Each entry below lists one item and its recorded CC50 value.
# Test system: bEnd.3 cells
# experiment: Cell viability assay (CellTiter-Blue)
# Format: cell-based, murine
Ends that are not written are not given here.

Here are 4 substances together with their reported answers.
substance | CC50
P4-MP: mesoporphyrin IX coupled to the C-terminal Lys side chain of peptide P4 (AGILKRWK-amide) (AGILKRWK(mesoporphyrin IX)-NH2) | > 50 µM
P4-PP: protoporphyrin IX coupled to the Lys side-chain NH2 group of peptide P4 (AGILKRWK-amide) (AGILKRWK-NH2; also: protoporphyrin IX on a Lys side chain, Lys not given here) | > 50 µM
PP-P3: protoporphyrin IX coupled to the N-terminal NH2 group of peptide P3 (AGILKRW-amide) ({protoporphyrin IX}-AGILKRW-NH2) | > 50 µM
MP-P3: mesoporphyrin IX coupled to the N-terminal amino group of peptide P3 (AGILKRW-amide) ({mesoporphyrin IX}-AGILKRW-NH2) | 48.2 µM

Problem: Quote CC50 with test system bEnd.3 cells for MP-P5: mesoporphyrin IX coupled to the N-terminal amino group of peptide P5 (SGTQEEY-amide) ({mesoporphyrin IX}-SGTQEEY-NH2)
Solution: > 50 µM

* * *

# Test system: bEnd.3 cell monolayers
Ends that are not written are not given here.
// classify: if (% Base (RFI), FD4 Permeability (monolayer integrity post-translocation) < 10%) true (1) else false (0)

Worked examples follow.
substance | classification
PP-P3: protoporphyrin IX coupled to the N-terminal NH2 group of peptide P3 (AGILKRW-amide) ({protoporphyrin IX}-AGILKRW-NH2) | true (1)
MP-P5: mesoporphyrin IX coupled to the N-terminal amino group of peptide P5 (SGTQEEY-amide) ({mesoporphyrin IX}-SGTQEEY-NH2) | true (1)

Let's switch to this substance now.
Problem: Given P4-MP: mesoporphyrin IX coupled to the C-terminal Lys side chain of peptide P4 (AGILKRWK-amide) (AGILKRWK(mesoporphyrin IX)-NH2) , is recorded % Base (RFI), FD4 Permeability (monolayer integrity post-translocation) strictly lower than 10%?
Solution: false (0)
